- condition_context: in water, 284.15 K
assay_readout: solubility (mole fraction)
API doc: respond with a numeric literal and nothing else, no unit.

# smiles_structure, numeric_value
measured = [
    ("O=C(O)CCCCCC(=O)O", 0.00245),
    ("O=C(O)CCCC(=O)O", 0.085),
]

Consider the additional compound presented here.
Quick one: solubility (mole fraction) for `O=C(O)c1ccco1` ?
0.00462

----------
- condition_context: in water, 280.15 K
assay_readout: solubility (mole fraction)
# output: bare number, no unit

What measured solubility (mole fraction) goes with `O=C(O)c1ccco1` ?
0.00414

----------
- condition_context: in water, 307.15 K
Measured solubility (mole fraction), listed per entry.
// keep it numeric: no unit symbol after the value

Some solved cases for reference:
# smiles_structure, solubility (mole fraction)
rows = [
    ("O=C(O)CCCCCC(=O)O", 0.0113),
    ("O=C(O)c1ccccc1C(=O)O", 0.00107),
    ("O=C(O)c1ccccc1O", 0.000441),
    ("O=C(O)c1ccco1", 0.0125),
]

Could you now consider this next compound?
Value lookup for solubility (mole fraction); key = `O=C(O)CCCC(=O)O`
0.216
